The measurements presented in this section are drawn from patent US20230055711A1.

Target: recombinant human BCMA-his protein (Acro biosystems, Cat #BCA-H522Y) (human) (UniProt Q02223)
Sequence (Q02223 1-54, stated change not applied): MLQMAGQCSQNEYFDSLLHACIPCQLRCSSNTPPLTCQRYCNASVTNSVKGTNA
Assay: BLI Octet RED96, antibody on AHC sensor, BCMA-his in solution
Reported log10 of kon is given for each of the following binders.
Use the decimal logarithm of kon (M⁻¹ s⁻¹).

Solved entries (count: 4):
binder: huB1H2-V20 (antibody, human IgG1, kappa, V domains shown) VH: QVQLVQSGAEVKKPGASVKVSCKASGYTLTNYVMHWVRQAPGQGLEWIGFIIPFNDGTKYNEHFKGRVTITRDTSISTAYMQLSSLRSEDTAVYYCARYDFEGYFDVWGQGTLVTVSS VL: DIQMTQSPSSLSASVGDRVTITCSASQDITNFLNWYQQKPGKAPKLLIYSTSRLHSGVPSRFSGSGSGTDYTLTISSLQPEDIATYYCQQYSNLPWTFGQGTKVEIKR
log10 of kon: 5.37
--
binder: huB1H2-V16 (antibody, human IgG1, kappa, V domains shown) VH: QVQLVQSGAEVKKPGASVKVSCKASGYTLTNYVMHWVRQAPGQGLEWIGFIIPFNDGTKYNEHFKGRVTITSDTSISTAYMQLSSLRSEDTAVYYCARYDFEGYFDVWGQGTLVTVSS VL: DIQMTQSPSSLSASVGDRVTITCSASQDITNFLNWYQQKPGKAVKLLIYSTSRLHSGVPSRFSGSGSGTDFTLTISSLQPEDIATYYCQQYSNLPWTFGQGTKVEIKR
log10 of kon: 5.40
--
binder: huB1H2-V33 (antibody, human IgG1, kappa, V domains shown, Humanized IgG1/kappa; cell supernatant in the Octet assay, purified antibody in Biacore, ELISA and FACS) VH: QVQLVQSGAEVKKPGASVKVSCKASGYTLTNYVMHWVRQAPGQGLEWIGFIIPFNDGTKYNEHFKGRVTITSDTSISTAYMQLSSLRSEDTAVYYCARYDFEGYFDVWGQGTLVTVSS VL: DIQMTQSPSSLSASVGDRVTITCSASQDITNFLNWYQQKPGKAPKLLIYSTSRLHSGVPSRFSGSGSGTDFTFTISSLQPEDIATYYCQQYSNLPWTFGQGTKVEIKR
log10 of kon: 6.99
--
binder: huB1H2-V14 (antibody, human IgG1, kappa, V domains shown) VH: QVQLVQSGAEVKKPGASVKVSCKASGYTLTNYVMHWVRQAPGQGLEWIGFIIPFNDGTKYNEHFKGRVTITRDTSISTAYMQLSSLRSEDTAVYYCARYDFEGYFDVWGQGTLVTVSS VL: DIQMTQSPSSLSASVGDRVTITCSASQDITNFLNWYQQKPGKAVKLLIYSTSRLHSGVPSRFSGSGSGTDFTLTISSLQPEDIATYYCQQYSNLPWTFGQGTKVEIKR
log10 of kon: 5.42

From here, focus on the item given below.
(Q) Please give the documented log10 of kon of huB1H2-V23 (antibody, human IgG1, kappa, V domains shown) VH: QVQLVQSGAEVKKPGASVKVSCKASGYTLTNYVMHWVRQAPGQGLEWIGFIIPFNDGTKYNEHFKGRVTITRDKSISTAYMQLSSLRSEDTAVYYCARYDFEGYFDVWGQGTLVTVSS VL: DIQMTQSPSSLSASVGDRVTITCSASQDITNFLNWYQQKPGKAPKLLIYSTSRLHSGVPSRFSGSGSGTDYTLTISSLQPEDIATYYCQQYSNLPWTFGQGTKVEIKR
(A) 5.02
